Species: Danio rerio
Experiment: Cardiotoxicity in Zebrafish AB embryos assessed as heart beat rate at 15 uM measured at 2 days post fertilization by stereomicroscopic method (reference value: 128.7 to 146.3 bpm)
Assay type: organism-based
Conditions: in vivo, 48 h
As shown below, each of these compounds has a reported Activity value.
Write it as a number; the unit bpm goes unstated.

Example compounds with recorded Activity:
CC1CCCCC1NC(=O)CSc1nc2ccccc2c(=O)[nH]1 (configuration not stated)
151.7
O=C(CSc1nc2ccccc2c(=O)[nH]1)NCC1CCCCC1
143.2

Challenge: Could you tell me which Activity is on file for CC1CCC(NC(=O)CSc2nc3ccccc3c(=O)[nH]2)CC1 (configuration not stated) ?
Response given: 127.2

Challenge: Could you tell me which Activity is on file for CC1CCCC(NC(=O)CSc2nc3ccccc3c(=O)[nH]2)C1 (configuration not stated) ?
Response given: 151.7

Challenge: Could you tell me which Activity is on file for O=C(CSc1nc2ccccc2c(=O)[nH]1)NC1CCCCC1 ?
Response given: 155

Challenge: Could you tell me which Activity is on file for C[C@H]1CC[C@H](NC(=O)CSc2nc3ccccc3c(=O)[nH]2)CC1 ?
Response given: 134

Challenge: Could you tell me which Activity is on file for O=C(CSc1nc2ccccc2c(=O)[nH]1)NC1CCCCCC1 ?
Response given: 136.5

====

Assay: Stability of the compound in PBS containing 10% DMSO at 25 degC measured after 24 hrs by HPLC analysis
Format: physicochemical
Details: buffer
measurement-kind: Stability (%)
Write it as a number; the unit % goes unstated.

Example molecules with recorded Stability:
C[C@H]1CC[C@H](NC(=O)CSc2nc3ccccc3c(=O)[nH]2)CC1
26
CC1CCCC(NC(=O)CSc2nc3ccccc3c(=O)[nH]2)C1 (configuration not stated)
100
O=C(CSc1nc2ccccc2c(=O)[nH]1)NC1CCCCC1
109
CC1CCC(NC(=O)CSc2nc3ccccc3c(=O)[nH]2)CC1 (configuration not stated)
111
O=C(CSc1nc2ccccc2c(=O)[nH]1)NCC1CCCCC1
114
CC1CCCCC1NC(=O)CSc1nc2ccccc2c(=O)[nH]1 (configuration not stated)
138

Challenge: Could you tell me which Stability is on file for O=C(CSc1nc2ccccc2c(=O)[nH]1)NC1CCCCCC1 ?
Response given: 122

====

As shown below, each of these compounds has a reported Activity value.
Species: Danio rerio
Assay: Cardiotoxicity in Zebrafish AB embryos assessed as heart beat rate at 20 uM measured at 2 days post fertilization by stereomicroscopic method (reference value: 128.7 to 146.3 bpm)
Format: organism-based
Conditions: in vivo, 48 h
Write it as a number; the unit bpm goes unstated.

Example compounds with recorded Activity:
CC1CCCCC1NC(=O)CSc1nc2ccccc2c(=O)[nH]1 (configuration not stated)
153.9
O=C(CSc1nc2ccccc2c(=O)[nH]1)NC1CCCCCC1
148.4
CC1CCC(NC(=O)CSc2nc3ccccc3c(=O)[nH]2)CC1 (configuration not stated)
146.4
O=C(CSc1nc2ccccc2c(=O)[nH]1)NCC1CCCCC1
152.6
C[C@H]1CC[C@H](NC(=O)CSc2nc3ccccc3c(=O)[nH]2)CC1
150.2
O=C(CSc1nc2ccccc2c(=O)[nH]1)NC1CCCCC1
155.7

Consider now this further compound.
Challenge: Could you tell me which Activity is on file for CC1CCCC(NC(=O)CSc2nc3ccccc3c(=O)[nH]2)C1 (configuration not stated) ?
Response given: 152.2

FYI, the data here is from ChEMBL document CHEMBL4152290.
